Source of measurements: patent US20240059710A1

target: GDP-loaded HIS-KRAS (G12D, aa 1-169) (Homo sapiens, UniProt P01116, G12D); construct: GDP-loaded HIS-KRAS (G12D, aa 1-169); experiment: SOS1 catalyzed nucleotide exchange assay; details: SOS1 ExD, TR-FRET, 4 hours at 25° C.
Sequence (P01116 1-169 isoform P01116-2 G12D): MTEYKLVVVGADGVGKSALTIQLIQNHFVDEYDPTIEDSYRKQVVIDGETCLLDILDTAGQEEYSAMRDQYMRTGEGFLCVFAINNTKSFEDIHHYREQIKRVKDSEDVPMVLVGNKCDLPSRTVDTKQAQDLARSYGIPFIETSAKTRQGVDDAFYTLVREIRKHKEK
Binarize IC50 at 10 nM; below is Criterion met, at or above is Criterion not met.

>>> classlabel("N#Cc1c(N)sc2c(F)ccc(-c3ccc4c(N5CC6CCC(C5)N6)nc(OCC5(CN6CCOCC6)CC5)nc4c3F)c12")
"Criterion met"
>>> classlabel("Oc1cc(Cl)c(C(F)(F)F)c(-c2c(Cl)cc3c(N4CC5CCC(C4)N5)nc(OC[C@@]45CCCN4C[C@H](F)C5)nc3c2F)c1")
"Criterion not met"
>>> classlabel("C#Cc1cccc2cc(O)cc(-c3cc4nc(OCC5(CN6CCOCC6)CC5)nc(N5CC6CCC(C5)N6)c4cc3C)c12")
"Criterion not met"
>>> classlabel("C#Cc1cccc2cc(O)cc(-c3ccc4c(N5CC6CCC(C5)N6)nc(OCC5(CN6CC[C@@H](F)C6)CC5)nc4c3F)c12")
"Criterion not met"
>>> classlabel("C#Cc1cccc2cc(O)cc(-c3ccc4c(N5CC6CCC(C5)N6)nc(OCC5(CN6CCO[C@@H](C)C6)CC5)nc4c3F)c12")
"Criterion met"
>>> classlabel("C#Cc1cccc2cc(O)cc(-c3c(C#N)cc4c(N5CC6CCC(C5)N6)nc(OCC5(CN6CCOCC6)CC5)nc4c3F)c12 (single isomer, unassigned) [Compound 60B]")
"Criterion not met"
>>> classlabel("Oc1cc(-c2c(Cl)cc3c(N4CC5CCC(C4)N5)nc(OCC4(CN5CCOCC5)CC4)nc3c2F)c2c(F)cccc2c1")
"Criterion not met"
>>> classlabel("Oc1cc(-c2c(Cl)cc3c(N4CC5CCC(C4)N5)nc(OCC45CCCN4C[C@H](F)C5)nc3c2F)c2c(Cl)cccc2c1 (stereo partly drawn)")
"Criterion met"
>>> classlabel("C#Cc1cccc2cc(O)cc(-c3ccc4c(N5CC6CCC(C5)N6)nc(OCC5(CN6CCOCC6)CC5)nc4c3C)c12")
"Criterion not met"
>>> classlabel("C#Cc1cccc2cc(O)cc(-c3c(Cl)cc4c(N5CC6CCC(C5)N6)nc(OC[C@@]56CCCN5C[C@H](F)C6)nc4c3F)c12 (single isomer, unassigned) [Compound 72B]")
"Criterion met"
>>> classlabel("Oc1cc(Cl)c(C(F)(F)F)c(-c2ccc3c(N4CC5CCC(C4)N5)nc(OC[C@@]45CCCN4C[C@H](F)C5)nc3c2F)c1")
"Criterion not met"
>>> classlabel("C#Cc1cccc2cc(O)cc(-c3c(C4CC4)cc4c(N5CC6CCC(C5)N6)nc(OCC5(CN6CCOCC6)CC5)nc4c3F)c12 (single isomer, unassigned) [Compound 38B]")
"Criterion met"
